Reference source: paper PMC7587356

assay-target: SARS-CoV-2 3CLpro (Severe acute respiratory syndrome coronavirus 2)
assay-text: biochemical
Assay type: biochemical
test-context: LOPAC1280 primary screen with protease, 5 µM compound, replicate 2
reported-property: Replicate_2 (LOPAC_screen_w_protease)
Reply with the value as a number alone.

Recorded Replicate_2 (LOPAC_screen_w_protease), per entry:
| compound | assay-target | Replicate_2 (LOPAC_screen_w_protease) |
| --- | --- | --- |
| CCCCC/C=C\C[C@@H](O)/C=C/c1cccc(C[C@@H](O)CCCCO)n1 [U-75302] | SARS-CoV-2 3CLpro (Severe acute respiratory syndrome coronavirus 2) | 2.627 |
| N[C@@H](Cc1ccc(F)cc1)C(=O)O [p-Fluoro-L-phenylalanine] | SARS-CoV-2 3CLpro (Severe acute respiratory syndrome coronavirus 2) | -0.04537 |
| CC1CCCC=CC2CC(O)CC2C(O)C=CC(=O)O1 (stereo not drawn) | SARS-CoV-2 3CLpro (Severe acute respiratory syndrome coronavirus 2) | 1.9466 |
| C[N+](C)(C)CCOP(=O)([O-])OP(=O)([O-])OC[C@H]1O[C@@H](n2ccc(N)nc2=O)[C@H](O)[C@@H]1O.[Na+] [Citicoline sodium] | SARS-CoV-2 3CLpro (Severe acute respiratory syndrome coronavirus 2) | 3.392 |
| NCC(=O)NCCC(c1ccccc1)c1ccccc1 [N-(3,3-Diphenylpropyl)glycinamide] | SARS-CoV-2 3CLpro (Severe acute respiratory syndrome coronavirus 2) | 1.598 |
| CCn1c(=O)[nH]c2cc(Cl)c(Cl)cc21 [DCEBIO] | SARS-CoV-2 3CLpro (Severe acute respiratory syndrome coronavirus 2) | 0.9113 |

IN: Quick check: Replicate_2 (LOPAC_screen_w_protease) of Br.Br.N=C(N)SCCN ?
OUT: 1.108

IN: Follow-up entry: CC(C)(C=O)Cc1cc(C(C)(C)C)c(O)c(C(C)(C)C)c1 [CGP-13501]
OUT: 3.292

IN: For Cl.NC(N)=NCCNS(=O)(=O)c1cccc2cnccc12 [HA-1004 hydrochloride] then?
OUT: 2.221

---

assay-target: UniProt:P0DTD1
assay-text: biochemical
Type: biochemical
test-context: LOPAC1280 primary screen with protease, 5 µM compound, replicate 1
# maps each entry to its Replicate_1 (LOPAC_screen_w_protease)

Worked cases, Replicate_1 (LOPAC_screen_w_protease) given:
| compound | Replicate_1 (LOPAC_screen_w_protease) |
| --- | --- |
| CC1=C(C(=O)O)N2C(=O)[C@@H](NC(=O)[C@H](N)c3ccccc3)[C@H]2SC1.O [Cephalexin hydrate] | 2.163 |
| CCN(CC)CCNC(=O)c1ccc(NC(C)=O)cc1.Cl [N-Acetylprocainamide hydrochloride] | 0.6051 |
| CN1CC[C@]2(CCN3CCc4c(oc5ccccc45)[C@@H]3C2)N(C)C1=O | 1.746 |

// below: Replicate_1 (LOPAC_screen_w_protease) requested for another compound
IN: Enter reported Replicate_1 (LOPAC_screen_w_protease) observed with UniProt:P0DTD1 for CC(C)NCC(O)c1ccc(NS(C)(=O)=O)cc1.Cl (racemic) [(±)-Sotalol hydrochloride]
OUT: 1.054

---

assay-target: SARS-CoV-2 3CLpro (Severe acute respiratory syndrome coronavirus 2)
assay-text: biochemical
Format: biochemical
Set-up: unit not given here
test-context: sheet LOPAC_screen_w_protease; primary screen with protease, compound at 5 µM; replicate 1
# note: exactly 4 is not below, so it is class 0; use class 1 for Replicate_1 strictly under it

| compound | label-value |
| --- | --- |
| NC(CP(=O)(O)O)C(=O)O (racemic) [(±)-2-Amino-3-phosphonopropionic acid] | class 0 |
| C[C@H]1O[C@@H](n2cc(F)c(=O)[nH]c2=O)[C@H](O)[C@@H]1O [5-fluoro-5'-deoxyuridine] | class 1 |
| CCCn1c(=O)c2c(ncn2C)n(CCC)c1=O [1,3-Dipropyl-7-methylxanthine] | class 1 |
| CC(C)NCC(O)c1ccc(O)c(O)c1.Cl (racemic) [(±)-Isoproterenol hydrochloride] | class 1 |
| COC(=O)C(C)(N)Cc1ccc(O)cc1.Cl (racemic) | class 0 |

IN: Identify whether the compound CC12NC(Cc3ccccc31)c1ccccc12.O=C(O)/C=C\C(=O)O (single isomer, unassigned; (+)) [(+)-MK-801 hydrogen maleate] records Replicate_1 below 4.
OUT: class 0

IN: Field entry: O=C1OC(=O)[C@H]2[C@@H]1[C@@H]1CC[C@H]2O1 [Norcantharidin]
OUT: class 1
